Test: qHTS assay to identify small molecule agonists of the hypoxia (HIF-1) signaling pathway (AID 1224846); note: % is set by controls: 0 for no effect and ±100 for the full control effect
Settings: HRE-bla ME-180 cells, beta-lactamase ratio, 17 h; series mostly up to 76.8 µM
Results filed as inconclusive are left out. Activity calls are given as the source filed them. Calls come from the whole dose curve; as a rule, active = well fitted activation curve with a large enough effect in the signal ratio in the repeat runs (not every such curve was filed as active); inconclusive = weak or mixed curves; inactive = flat fitted curve, though single readings scatter; the % refers to the signal ratio. Positions of bridges follow the written chain, without caps; N, C: chain ends. Non-standard residues stand in square brackets, D forms with d. Residues, ends and D or L forms follow the SMILES beside them. hArg = N=C(N)NCCCC[C@H](N)C(=O)O; Mpa = O=C(O)CCS

Compound: c1ccc2cnccc2c1
activation: inactive

Compound: O=C(O)c1cc2ccccc2nc1C(=O)O
activation: inactive

Compound: C=CC(=O)CCCCC
activation: inactive

Compound: CC(C)C1OCCN1CCOC(=O)NCCCCCCNC(=O)OCCN1CCOC1C(C)C (stereo not given)
activation: inactive

Compound: CCOC(CN1CCN(CC(C)C(=O)c2ccccc2)CC1)c1ccccc1 (stereo not given)
activation: 1.68% [at 15.8 µM] (inactive)

Compound: C[C@H]1[C@@H](c2ccccc2)NC(=O)N1C
activation: inactive

Compound: CC(=O)O[C@@H]1CC2CCC1(C)C2(C)C (stereo not given in full)
activation: inactive

Compound: C=CC/C=C/C
activation: inactive

Compound: CCCCCCCCCCOC(C)=O
activation: inactive

Compound: CCO[Si](CC)(OCC)OCC
activation: inactive

Compound: CNCCS(=O)(=O)O
activation: inactive

Compound: C=C(C)c1cccc(C(C)(C)N=C=O)c1
activation: inactive

Compound: CO[Si](CCCn1c(=O)n(CCC[Si](OC)(OC)OC)c(=O)n(CCC[Si](OC)(OC)OC)c1=O)(OC)OC
activation: inactive

Compound: OC[C@H]1O[C@@H](O[C@@H]2[C@@H](CO)O[C@](O)(CO)[C@H]2O)[C@H](O)[C@@H](O)[C@H]1O
activation: inactive

Compound: NC(=O)[C@@H]1CSSCCC(=O)N[C@@H](CCCCN=C(N)N)C(=O)NCC(=O)N[C@@H](CC(=O)O)C(=O)N[C@@H](Cc2c[nH]c3ccccc23)C(=O)N2CCC[C@H]2C(=O)N1 ([Mpa][hArg]GDWPC-NH2; disulfide 1-7)
activation: inactive

Compound: OCCN1CCOCC1
activation: inactive

Compound: COC(=O)c1cccc(Cl)c1
activation: inactive

Compound: CC(=O)OC1CCCCC1C(C)(C)C (stereo not given)
activation: inactive

Compound: CCOC(=O)CC1(C)OCC(C)O1 (stereo not given)
activation: inactive

Compound: N[C@@H](Cc1ccc(O)cc1)C(=O)O
activation: -0.522% [at 7.01 µM] (inactive)

Compound: O=C=NCC1CCCC(CN=C=O)C1 (stereo not given)
activation: inactive

Compound: O=C(O)CCCCCC(=O)O
activation: inactive

Compound: COC(=O)CCCCC(CCSS/C(CCO)=C(\C)N(C=O)Cc1cnc(C)nc1N)SC(C)=O (stereo not given)
activation: inactive

Compound: O=[N+]([O-])c1c(Cl)cc(Cl)cc1Cl
activation: inactive

Compound: COc1nc(N)nc2nc[nH]c12
activation: inactive

Compound: CCCCCC(C)O (stereo not given)
activation: inactive

Compound: CC(=O)O[Si](C)(OC(C)=O)OC(C)=O
activation: inactive

Compound: NCC1(Cc2noc(=O)[nH]2)CCCCC1
activation: inactive

Compound: O=S(=O)(O)c1ccc2c(N=Nc3ccc(S(=O)(=O)O)c4ccccc34)c(O)c(S(=O)(=O)O)cc2c1
activation: -0.322% [at 7.01 µM] (inactive)

Compound: CCC(C)C(C)=O (stereo not given)
activation: inactive

Compound: O=C(O)CSCC(=O)NC1CCSC1=O (stereo not given)
activation: inactive

Compound: CN(C)CCCCl
activation: inactive

Compound: C=C(C)C1CC=C(C)C(=O)C1 (stereo not given)
activation: inactive

Compound: COC(C)(OC)OC
activation: inactive

Compound: Cn1c(=O)c2[nH]c(Br)nc2n(C)c1=O
activation: inactive

Compound: C=CCOC(=O)CCCCCC
activation: inactive

Compound: CC1(C)O[C@H]2CC(=O)OC[C@]23[C@H]2CC[C@@]4(C)[C@H](c5ccoc5)OC(=O)[C@H]5O[C@]54[C@]2(C)C(=O)C[C@@H]13
activation: inactive

Compound: O=C[O][Al]([O]C=O)[O]C=O
activation: inactive

Compound: COc1cc(/C=C/C(N)=O)cc(OC)c1OC
activation: inactive

Compound: CCCCOC(=O)[C@H](C)O
activation: inactive

Compound: O=NN(CCCl)C(=O)NC1CCCCC1
activation: inactive

Compound: C=C(C)[C@@H]1CC=C(C)C(=O)C1
activation: inactive

Compound: CC(C)NC(=O)c1ccc(C=O)cc1
activation: inactive

Compound: CCCCCc1cccc(=O)o1
activation: inactive

Compound: CCC(C(=O)OCCN1CCOC(c2ccccc2)C1C)c1ccccc1 (stereo not given)
activation: inactive
